- Test system: MDA-MB-468 breast
- Test: NCI-60 one-dose screen, 48 h (100 = growth as untreated, 0 = no growth, -100 = all killed)
- Experimental Conditions: 10 µM unless noted
The panel holds about 83,000 compounds, 20% with a hit somewhere; the sample as a whole holds those more often.
Classify as follows. Reported growth greater than or equal to 20%: 1. Reported growth below: -1.

| Compound | Class Name |
| --- | --- |
| CSc1ccc2c(c1)N(C(=O)/C(C#N)=C/c1c[nH]c3ccccc13)c1ccccc1S2 | -1 |
| CCOC(=O)c1cc2cccc(OC)c2oc1=O | 1 |
| Cc1ccc(C2CC(c3ccc(Nc4nc(NCCO)nc(Nc5ccc(Cl)cc5)n4)cc3)=NN2c2cc(Cl)cc(Cl)c2)cc1 (stereo not given) | 1 |
| CC1(C)[C@@H](O)CC[C@]2(C)[C@H]3CC[C@@H]4[C@H]5[C@H](C(=O)/C=C\c6ccccn6)CC[C@]5(O)CC[C@@]4(C)[C@]3(C)CC[C@@H]12 | 1 |
| COc1ccc(-c2nn(-c3ccc(Cl)cc3)cc2-c2nc3ccccc3[nH]2)cc1 | 1 |

---

- Test system: UACC-62 melanoma
- Test: NCI-60 one-dose screen, 48 h (100 = growth as untreated, 0 = no growth, -100 = all killed)
- Experimental Conditions: 10 µM
About 83,000 compounds went through this panel and 20% of them were active in at least one assay; those are over-represented in the sample as a whole.
Assay Endpoint: growth (%)

| Compound | Assay Endpoint | Units Symbol | Obs Value |
| --- | --- | --- | --- |
| Cc1cc(N=C2NC(=O)/C(=C/c3cc(C(C)(C)C)c(O)c(C(C)(C)C)c3)S2)n[nH]1 | growth | % | 8.86 |
| O=[N+]([O-])c1cccc(-c2nnc3c(/C=C/c4ccccc4O)nc4ccccc4n23)c1 | growth | % | 16 |
| COc1ccc(-n2c(SCC(=O)NNS(=O)(=O)c3ccccc3)nc3ccc(Cl)cc3c2=O)cc1 | growth | % | 77 |
| Cn1cc(/C=C(/SS/C(=C/c2cn(C)c3cccc(C(=O)O)c23)C(=O)O)C(=O)O)c2c(C(=O)O)cccc21 | growth | % | 92.3 |
| O=C(CC(=O)Nc1ccc(Oc2ncnc3scc(Nc4n[nH]c(=S)s4)c23)cc1)Nc1ccc(Cl)cc1 | growth | % | 53.6 |
| O=C(CSc1nc2ccccc2c(=O)n1-c1ccc(Cl)cc1)Nc1ccc(-c2nc3ccc([N+](=O)[O-])cc3[nH]2)cc1 | growth | % | 36.9 |
| COc1ccc(OC)c(-n2cc(C#N)c(N)c2C(=O)c2ccc(Cl)cc2Cl)c1 | growth | % | 30.5 |
| O=C(CN1CCN(c2ncnc3c2cnn3-c2ccccc2)CC1)Nc1ccc(Cl)cc1 | growth | % | 45.3 |
| O=C(CC(=O)Nc1ccc(Oc2ncnc3scc(Nc4n[nH]c(=S)s4)c23)cc1)Nc1ccc(Br)cc1 | growth | % | 82.2 |
| COc1cc2oc(-c3cccc(C(=O)Nc4ccc(Cl)cc4)c3)cc(=O)c2c(OCCNC(=O)[C@@H](N)CO)c1OC | growth | % | 38.8 |
| CC(C)(C)c1cc(/C=C2\S/C(=N/c3ncn[nH]3)NC2=O)cc(C(C)(C)C)c1O | growth | % | 1.85 |
| O=C(Nc1ccc(OCC(=O)c2ccc(Cl)cc2)cc1)Nc1ccc(Cl)c(C(F)(F)F)c1 | growth | % | 18.1 |
| Cn1cc(-c2nc(N)nnc2-c2c[nH]c3ccccc23)c2cc(Br)cnc21 | growth | % | 21.1 |
| CCn1c(SCC(=O)Nc2ccc(-c3nc4ccccc4[nH]3)cc2)nc2ccccc2c1=O | growth | % | -81.7 |
| COc1ccc(Cc2nn(CC(=O)N/N=C/c3ccc(Br)cc3)c(=O)c3c(C)noc23)cc1 | growth | % | 54.3 |
| COc1cc(C2CC(c3ccccc3)=Nc3c(N)nc(N)nc3N2)ccc1Oc1nc(NCCO)nc(N2CCOCC2)n1 (stereo not drawn) | growth | % | 97.1 |
| O=C(c1ccccc1)c1ccc2nc(-c3ccccc3Br)[nH]c2c1 | growth | % | -47.5 |
| COc1cc(Nc2nc(O)c(/C=C3\C=Nc4ccccc43)s2)cc(OC)c1OC | growth | % | -65.9 |
